Test system: T24 cell line
Experiment: Cytotoxicity MTS assay, T24 cell line;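 note: blank control wells received 0.025% DMSO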
Format: cell-based
Conditions: T24 cell line, 0.5μM, third assay
ASSAY READOUT: OD490 Well 3
Just the number, please.

Exercise: Would you mind telling me what OD490 Well 3 value was observed for CCOC(=O)C1=C(C)NC(=S)NC1c1cccc(O)c1 (stereo not shown) [Monastrol, monastrol, reference compound] ?
Key: 1.6669

Exercise: Would you mind telling me what OD490 Well 3 value was observed for CCOc1ccccc1C1NC(=S)NC(C)=C1C(=O)Nc1ccc(Cl)cc1 (stereo not shown) ?
Key: 1.6252

Exercise: Would you mind telling me what OD490 Well 3 value was observed for CCOC(=O)c1c(C2NC(=O)NC(C)=C2C(=O)Nc2ccccc2OC)[nH]c(C(=O)OC)c1C (stereo not shown) [D1] ?
Key: 1.7698

Exercise: Would you mind telling me what OD490 Well 3 value was observed for CCOC(=O)c1[nH]c(C2NC(=O)NC(C)=C2C(=O)Nc2ccccc2C)c(C(=O)OC)c1C (stereo not shown) ?
Key: 1.7022

###

Test system: Hela cell line
Assay: Cytotoxicity MTS assay, Hela cell line;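 note: blank control wells received 0.025% DMSO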
Format: cell-based
Conditions: Hela cell line, MTS, 100μM, second assay
ASSAY READOUT: OD490 value, Well 3
Just the number, please.

Exercise: Would you mind telling me what OD490 value, Well 3 value was observed for CCOc1ccccc1C1NC(=S)NC(C)=C1C(=O)Nc1ccc(Cl)cc1 (centres unmarked) ?
Key: 1.0589

Exercise: Would you mind telling me what OD490 value, Well 3 value was observed for CCOC(=O)c1c(C2NC(=O)NC(C)=C2C(=O)Nc2ccccc2OC)[nH]c(C(=O)OC)c1C (centres unmarked) [D1] ?
Key: 2.0220

Exercise: Would you mind telling me what OD490 value, Well 3 value was observed for CCOC(=O)c1[nH]c(C2NC(=S)NC(C)=C2C(=O)OC)c(C(=O)OCC)c1C (centres unmarked) ?
Key: 2.4369

Exercise: Would you mind telling me what OD490 value, Well 3 value was observed for CCOC(=O)c1[nH]c(C2NC(=O)NC(C)=C2C(=O)Nc2ccc(Cl)cc2)c(C(=O)OCC)c1C (centres unmarked) ?
Key: 1.9987

Exercise: Would you mind telling me what OD490 value, Well 3 value was observed for CCOC(=O)c1c(C2NC(=O)NC(C)=C2C(=O)Nc2ccccc2C)[nH]c(C(=O)OC)c1C (centres unmarked) [D2] ?
Key: 2.2014

Exercise: Would you mind telling me what OD490 value, Well 3 value was observed for CCOC(=O)c1[nH]c(C2NC(=O)NC(C)=C2C(=O)Nc2ccccc2C)c(C(=O)OC)c1C (centres unmarked) ?
Key: 1.9963

Exercise: Would you mind telling me what OD490 value, Well 3 value was observed for CCOC(=O)c1[nH]c(C2NC(=O)NC(C)=C2C(=O)Nc2ccccc2OC)c(C(=O)OC)c1C (centres unmarked) ?
Key: 1.7654

Exercise: Would you mind telling me what OD490 value, Well 3 value was observed for CCOC(=O)c1c(C2NC(=O)NC(C)=C2C(=O)Nc2ccccc2)[nH]c(C(=O)OC)c1C (centres unmarked) ?
Key: 1.6898

###

Biological target: Eg5 motor protein (Homo sapiens, UniProt P52732)
Construct: Eg5 motor domain (amino acids 1-368) was cloned into pET22b; His-tag (C); made in house; host or cells: Escherichia coli BL21 (DE3)
Sequence (P52732 1-368): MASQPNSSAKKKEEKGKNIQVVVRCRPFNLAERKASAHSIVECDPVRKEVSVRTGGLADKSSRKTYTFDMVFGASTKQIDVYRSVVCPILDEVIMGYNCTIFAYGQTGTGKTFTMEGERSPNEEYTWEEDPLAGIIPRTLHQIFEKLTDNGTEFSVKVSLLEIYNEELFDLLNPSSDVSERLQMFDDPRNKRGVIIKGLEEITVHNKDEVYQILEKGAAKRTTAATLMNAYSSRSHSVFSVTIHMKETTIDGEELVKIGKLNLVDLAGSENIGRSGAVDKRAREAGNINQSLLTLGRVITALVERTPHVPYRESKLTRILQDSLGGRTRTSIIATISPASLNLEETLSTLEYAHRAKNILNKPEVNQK
Test: microtubule-activated Eg5 motor protein ATPase assay (malachite green, OD630)
Format: biochemical
Details: compound 60.61 uM
ASSAY READOUT: OD630 Value Mean
Just the number, please.

Exercise: Would you mind telling me what OD630 Value Mean value was observed for CCOC(=O)c1c(C2NC(=O)NC(C)=C2C(=O)Nc2ccccc2C)[nH]c(C(=O)OC)c1C (stereo not shown) [D2] ?
Key: 0.219

Exercise: Would you mind telling me what OD630 Value Mean value was observed for COC(=O)c1[nH]c(C2NC(=S)NC(C)=C2C(=O)c2ccccc2)c(C(=O)OC)c1C (stereo not shown) ?
Key: 0.187

Exercise: Would you mind telling me what OD630 Value Mean value was observed for CCOC(=O)c1[nH]c(C2NC(=O)NC(C)=C2C(=O)Nc2ccccc2OC)c(C(=O)OC)c1C (stereo not shown) ?
Key: 0.146

Exercise: Would you mind telling me what OD630 Value Mean value was observed for CCOC(=O)c1[nH]c(C2NC(=S)NC(C)=C2C(=O)OC)c(C(=O)OCC)c1C (stereo not shown) ?
Key: 0.191

###

Tested on: L929 cell line
Assay: Cytotoxicity MTS assay, L929 cell line
Assay type: cell-based
Conditions: L929 cell line, 0.5μM, first assay
ASSAY READOUT: OD490 values, Well 3
Just the number, please.

Exercise: Write down the reported OD490 values, Well 3 of CCOC(=O)c1[nH]c(C2NC(=O)NC(C)=C2C(=O)Nc2ccc(Cl)cc2)c(C(=O)OCC)c1C (centres unmarked) , test system: L929 cell line.
Key: 1.3135

Exercise: Write down the reported OD490 values, Well 3 of CCOC(=O)c1c(C2NC(=O)NC(C)=C2C(=O)Nc2ccccc2OC)[nH]c(C(=O)OC)c1C (centres unmarked) [D1] , test system: L929 cell line.
Key: 1.3648

Exercise: Write down the reported OD490 values, Well 3 of CCOC(=O)c1c(C2NC(=O)NC(C)=C2C(=O)Nc2ccccc2)[nH]c(C(=O)OC)c1C (centres unmarked) , test system: L929 cell line.
Key: 1.1452

Exercise: Write down the reported OD490 values, Well 3 of CCOC(=O)c1[nH]c(C2NC(=O)NC(C)=C2C(=O)Nc2ccccc2OC)c(C(=O)OC)c1C (centres unmarked) , test system: L929 cell line.
Key: 1.1589

Exercise: Write down the reported OD490 values, Well 3 of CCOC(=O)c1c(C2NC(=O)NC(C)=C2C(=O)Nc2ccccc2C)[nH]c(C(=O)OC)c1C (centres unmarked) [D2] , test system: L929 cell line.
Key: 1.3832

Exercise: Write down the reported OD490 values, Well 3 of CCOC(=O)c1[nH]c(C2NC(=O)NC(C)=C2C(=O)Nc2ccccc2C)c(C(=O)OC)c1C (centres unmarked) , test system: L929 cell line.
Key: 1.1737

Exercise: Write down the reported OD490 values, Well 3 of CCOC(=O)c1[nH]c(C2NC(=S)NC(C)=C2C(=O)OC)c(C(=O)OCC)c1C (centres unmarked) , test system: L929 cell line.
Key: 1.2500

Exercise: Write down the reported OD490 values, Well 3 of CCOc1ccccc1C1NC(=S)NC(C)=C1C(=O)Nc1ccc(Cl)cc1 (centres unmarked) , test system: L929 cell line.
Key: 1.2976

###

Task for the reader: assign each of the following compounds its reported OD490 Well 2.
System: T24 cell line
Assay: Cytotoxicity MTS assay, T24 cell line;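 note: blank control wells received 0.025% DMSO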
Format: cell-based
Conditions: T24 cell line, 1μM, first assay
Just the number, please.

Exercise: Would you mind telling me what OD490 Well 2 value was observed for CCOc1ccccc1C1NC(=S)NC(C)=C1C(=O)Nc1ccc(Cl)cc1 (stereo not shown) ?
Key: 1.7321

Exercise: Would you mind telling me what OD490 Well 2 value was observed for CCOC(=O)c1c(C2NC(=O)NC(C)=C2C(=O)Nc2ccccc2C)[nH]c(C(=O)OC)c1C (stereo not shown) [D2] ?
Key: 2.1141

Exercise: Would you mind telling me what OD490 Well 2 value was observed for CCOC(=O)c1[nH]c(C2NC(=S)NC(C)=C2C(=O)OC)c(C(=O)OCC)c1C (stereo not shown) ?
Key: 1.1847

Exercise: Would you mind telling me what OD490 Well 2 value was observed for CCOC(=O)c1[nH]c(C2NC(=O)NC(C)=C2C(=O)Nc2ccc(Cl)cc2)c(C(=O)OCC)c1C (stereo not shown) ?
Key: 1.7975

Exercise: Would you mind telling me what OD490 Well 2 value was observed for CCOC(=O)c1[nH]c(C2NC(=O)NC(C)=C2C(=O)Nc2ccccc2OC)c(C(=O)OC)c1C (stereo not shown) ?
Key: 1.4430

Exercise: Would you mind telling me what OD490 Well 2 value was observed for CCOC(=O)c1[nH]c(C2NC(=O)NC(C)=C2C(=O)Nc2ccccc2C)c(C(=O)OC)c1C (stereo not shown) ?
Key: 1.8237

Exercise: Would you mind telling me what OD490 Well 2 value was observed for CCOC(=O)c1c(C2NC(=O)NC(C)=C2C(=O)Nc2ccccc2OC)[nH]c(C(=O)OC)c1C (stereo not shown) [D1] ?
Key: 1.8729

Exercise: Would you mind telling me what OD490 Well 2 value was observed for CCOC(=O)c1c(C2NC(=O)NC(C)=C2C(=O)Nc2ccccc2)[nH]c(C(=O)OC)c1C (stereo not shown) ?
Key: 1.4515

Exercise: Would you mind telling me what OD490 Well 2 value was observed for CCOC(=O)C1=C(C)NC(=S)NC1c1cccc(O)c1 (stereo not shown) [Monastrol, monastrol, reference compound] ?
Key: 1.8580

Exercise: Would you mind telling me what OD490 Well 2 value was observed for COC(=O)c1[nH]c(C2NC(=S)NC(C)=C2C(=O)c2ccccc2)c(C(=O)OC)c1C (stereo not shown) ?
Key: 1.4478
